MEASUREMENT NOTES: chemical genetic growth profiling, strain panel (AID 1159580);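 also: tested at 20 µM; growth read once vehicle control cultures reached saturation at 30 °C; 1 = growth at the plate median or of vehicle wells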
DETAILS: S. cerevisiae deletion strains, growth OD, locus YHR030C, strain SLT2, stronger effect = lower value
In all, about 5,500 compounds went through this assay and about 2,000 (36%) were called active. Roughly 18% stayed inconclusive and do not appear here. The list shows a part of the results.
Threshold 1: normalized growth strictly smaller gives 1, otherwise 0.

[
  {
    "COMPOUND": "CC(C)Cc1ccc(C(C)C(=O)Nc2nn(C)c3ccccc23)cc1 (stereo not drawn)",
    "CATEGORY LABEL": 1
  },
  {
    "COMPOUND": "C[C@@H]1OC(O[C@H]2C(O[C@H]3CC[C@@]4(C)C(CC[C@]5(C)C4CC=C4C6CC(C)(C)CC[C@]6(C(=O)O)CC[C@]45C)[C@]3(C)CO)OC[C@H](O)[C@@H]2O)[C@H](O)[C@H](O)[C@H]1O (stereo partly drawn)",
    "CATEGORY LABEL": 1
  },
  {
    "COMPOUND": "COc1ccc(NC(=O)C(C)c2ccc(CC(C)C)cc2)cc1 (stereo not drawn)",
    "CATEGORY LABEL": 1
  },
  {
    "COMPOUND": "CN(C)CCCSC(=N)N",
    "CATEGORY LABEL": 1
  },
  {
    "COMPOUND": "N=C(N)SCCN",
    "CATEGORY LABEL": 0
  }
]

----------
MEASUREMENT NOTES: chemical genetic growth profiling, strain panel (AID 1159580);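 also: tested at 20 µM; growth read once vehicle control cultures reached saturation at 30 °C; 1 = growth at the plate median or of vehicle wells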
DETAILS: S. cerevisiae deletion strains, growth OD, locus YCL016C, strain dcc1
Out of some 5,500 compounds screened, about 2,000 (36%) were called active. Inconclusive results (about 18%) are left out. No stated cut-off is given here; in the data, active means normalized growth mostly below about 0.91 (no sharp cut-off); inconclusive means no clear call, values can overlap the other calls; inactive means mostly above about 0.92. This is one part of the list.
Outcomes: active, inactive

[
  {
    "COMPOUND": "N#CC(O[C@@H]1O[C@H](CO[C@@H]2O[C@H](CO)[C@@H](O)[C@H](O)[C@H]2O)[C@@H](O)[C@H](O)[C@H]1O)c1ccccc1 (stereo not given in full)",
    "CATEGORY LABEL": "inactive"
  },
  {
    "COMPOUND": "NNc1nncc2ccccc12",
    "CATEGORY LABEL": "inactive"
  },
  {
    "COMPOUND": "Clc1ccccc1C(c1ccccc1)(c1ccccc1)n1ccnc1",
    "CATEGORY LABEL": "active"
  },
  {
    "COMPOUND": "COc1ccc2c(c1)c(CC(=O)O)c(C)n2C(=O)c1ccc(Cl)cc1",
    "CATEGORY LABEL": "inactive"
  },
  {
    "COMPOUND": "CCC(C)C(NC)C(=O)O (stereo not given)",
    "CATEGORY LABEL": "inactive"
  },
  {
    "COMPOUND": "C[C@@H]1CC[C@H]2[C@@H](C)C(=O)O[C@@H]3O[C@@]4(C)CC[C@@H]1[C@]32OO4",
    "CATEGORY LABEL": "active"
  },
  {
    "COMPOUND": "C#C[C@]1(O)CCC2C3CCC4=CC(=O)CC[C@@H]4C3CC[C@@]21C (stereo not given in full)",
    "CATEGORY LABEL": "inactive"
  },
  {
    "COMPOUND": "O=C(CNC(=O)c1ccc(Cl)cc1)NO",
    "CATEGORY LABEL": "inactive"
  },
  {
    "COMPOUND": "Nc1c2ccccc2nc2ccccc12 (tested in a mixture with another compound)",
    "CATEGORY LABEL": "active"
  },
  {
    "COMPOUND": "Cc1ccc(S(=O)(=O)NC(=O)NN2CC3CCCC3C2)cc1 (stereo not given)",
    "CATEGORY LABEL": "inactive"
  },
  {
    "COMPOUND": "C[C@@H]1C(=O)O[C@H]2[C@H]1CC[C@@]1(C)C=CC(=O)[C@@]3(C)O[C@@]213",
    "CATEGORY LABEL": "inactive"
  },
  {
    "COMPOUND": "N=C(N)c1ccc(OCCCCCOc2ccc(C(=N)N)cc2)cc1",
    "CATEGORY LABEL": "inactive"
  },
  {
    "COMPOUND": "COC(=O)C[C@H]1C(C)(C)C2(O)OC34CC2C(=O)[C@]1(C)C3CC[C@]1(C)C4=CC(=O)O[C@H]1c1ccoc1 (stereo not given in full)",
    "CATEGORY LABEL": "inactive"
  },
  {
    "COMPOUND": "O=c1oc2cc(O)ccc2s1",
    "CATEGORY LABEL": "inactive"
  },
  {
    "COMPOUND": "O=C1c2c(O)cccc2Cc2cccc(O)c21",
    "CATEGORY LABEL": "inactive"
  },
  {
    "COMPOUND": "C/C=C(/C)C(=O)OC1CCC2(C)C3CCC4C5(O)CC(O)C6(O)C(CN7CC(C)CCC7C6(C)O)C5(O)CC42OC13O (stereo not given)",
    "CATEGORY LABEL": "inactive"
  },
  {
    "COMPOUND": "CC(=O)NC(C(=O)O)C(C)(C)SN=O (stereo not given)",
    "CATEGORY LABEL": "inactive"
  },
  {
    "COMPOUND": "Nc1ccc(S(=O)(=O)c2ccc(N)cc2)cc1",
    "CATEGORY LABEL": "inactive"
  },
  {
    "COMPOUND": "Cc1cc(-n2c(=O)[nH]c(=O)n(C)c2=O)ccc1Oc1ccc(SC(F)(F)F)cc1",
    "CATEGORY LABEL": "active"
  },
  {
    "COMPOUND": "FC(F)(F)c1ccccc1-n1ccnc1",
    "CATEGORY LABEL": "inactive"
  },
  {
    "COMPOUND": "COC(=O)C[C@H]1C(C)(C)C(=O)[C@@H]2CC3C4=CC(=O)O[C@@H](c5ccoc5)[C@]4(C)CCC3[C@@]1(C)C2=O (stereo not given in full)",
    "CATEGORY LABEL": "inactive"
  },
  {
    "COMPOUND": "COc1c(-c2coc3cc4c(cc3c2=O)CC(O)C(C)(C)O4)ccc2c1C=CC(C)(C)O2 (stereo not given)",
    "CATEGORY LABEL": "inactive"
  },
  {
    "COMPOUND": "COc1ccc2[nH]cc(CCN)c2c1",
    "CATEGORY LABEL": "inactive"
  },
  {
    "COMPOUND": "COC(=O)Nc1nc2ccc(Sc3ccccc3)cc2[nH]1",
    "CATEGORY LABEL": "inactive"
  },
  {
    "COMPOUND": "CC1(C)CCC2(C(=O)O)CCC3(C)C(=CCC4C5(C)CCC(O)C(C)(C)C5C(O)CC43C)C2C1 (stereo not given)",
    "CATEGORY LABEL": "inactive"
  },
  {
    "COMPOUND": "O=C(O)CC(O)(CC(=O)O)C(=O)O",
    "CATEGORY LABEL": "inactive"
  },
  {
    "COMPOUND": "O=C(Nc1ccc(C(=O)O)c(O)c1)c1ccccc1",
    "CATEGORY LABEL": "inactive"
  },
  {
    "COMPOUND": "Nc1c2c(nc3ccccc13)CCCC2O (stereo not given)",
    "CATEGORY LABEL": "inactive"
  },
  {
    "COMPOUND": "Cc1ccnc(NS(=O)(=O)c2ccc(N)cc2)n1",
    "CATEGORY LABEL": "inactive"
  },
  {
    "COMPOUND": "O=c1[nH]cc(F)c(=O)[nH]1",
    "CATEGORY LABEL": "active"
  },
  {
    "COMPOUND": "O=c1ccc2ccc(O)cc2o1",
    "CATEGORY LABEL": "inactive"
  },
  {
    "COMPOUND": "C[C@H]1[C@H](C)CC[C@]2(CO)CC[C@]3(C)C(=CCC4[C@@]5(C)CC[C@H](O)C(C)(C)C5CC[C@]43C)[C@H]12 (stereo not given in full)",
    "CATEGORY LABEL": "inactive"
  },
  {
    "COMPOUND": "Nc1c2ccccc2nc2ccccc12",
    "CATEGORY LABEL": "active"
  },
  {
    "COMPOUND": "NNC(=O)c1ccncc1",
    "CATEGORY LABEL": "inactive"
  },
  {
    "COMPOUND": "OC(CCN1CCCCC1)(c1ccccc1)C1CC2C=CC1C2 (stereo not given)",
    "CATEGORY LABEL": "inactive"
  },
  {
    "COMPOUND": "CCOC(=O)OC(C)OC(=O)C1N2C(=O)C(NC(=O)[C@H](N)c3ccccc3)C2SC1(C)C (stereo not given in full)",
    "CATEGORY LABEL": "inactive"
  },
  {
    "COMPOUND": "C/C=C(/C)C(=O)O[C@@H]1[C@H](OC(C)=O)[C@@]2(CO)C(CC1(C)C)C1=CCC3[C@@]4(C)CC[C@H](O[C@@H]5O[C@H](C(=O)O)[C@@H](O[C@@H]6O[C@H](CO)[C@@H](O)[C@H](O)[C@H]6O)[C@H](O)[C@H]5O[C@@H]5O[C@H](CO)[C@@H](O)[C@H](O)[C@H]5O)[C@](C)(CO)C4CC[C@@]3(C)[C@]1(C)C[C@H]2O (stereo not given in full)",
    "CATEGORY LABEL": "inactive"
  },
  {
    "COMPOUND": "COc1cccc2c1C(=O)c1c(O)c3c(c(O)c1C2=O)C[C@@](O)(C(C)=O)C[C@@H]3O[C@H]1C[C@H](N)[C@H](O)[C@H](C)O1",
    "CATEGORY LABEL": "inactive"
  },
  {
    "COMPOUND": "C[C@@H]1CC[C@H]2[C@@H](C)C(O)O[C@@H]3O[C@@]4(C)CC[C@@H]1[C@]32OO4 (stereo not given in full)",
    "CATEGORY LABEL": "active"
  },
  {
    "COMPOUND": "CO[C@@]12[C@@H]3NC3CN1C1=C(C(=O)C(N)=C(C)C1=O)[C@@H]2COC(N)=O (stereo not given in full)",
    "CATEGORY LABEL": "inactive"
  }
]
